The reported measurements were obtained from ChEMBL document CHEMBL1139364.

Experiment: Stability assessed as half life in isotonic sodium phosphate buffer at pH 7.4
Type: physicochemical
Where a SMILES comes first, the peptide text is derived from it. [ ]: non-standard residue; d: D form. Dopa = N[C@@H](Cc1ccc(O)c(O)c1)C(=O)O
Measured Property: half-life (h)

>  <Compound>
COC(=O)[C@H](Cc1ccc(O)c(O)c1)NC(=O)[C@H](CS)NC(=O)C(C)(C)S

>  <half-life [h]>
21.3

$$$$
>  <Compound>
COC(=O)[C@H](Cc1ccc(O)c(O)c1)NC(=O)[C@H](CCSC)NC(C)=O (Ac-Met-[Dopa]-OMe)

>  <half-life [h]>
30.2

$$$$
>  <Compound>
COC(=O)[C@H](Cc1ccc(O)c(O)c1)NC(=O)[C@H](CS)NC(=O)[C@@H](CS)NC(C)=O

>  <half-life [h]>
48.5

$$$$
>  <Compound>
COC(=O)[C@H](CS)NC(=O)[C@H](Cc1ccc(O)c(O)c1)NC(C)=O (Ac-[Dopa]-Cys-OMe)

>  <half-life [h]>
48

$$$$

a. COC(=O)[C@H](Cc1ccc(O)c(O)c1)NC(=O)[C@H](CS)NC(C)=O (Ac-Cys-[Dopa]-OMe)
b. COC(=O)[C@H](CCSC)NC(=O)[C@H](Cc1ccc(O)c(O)c1)NC(C)=O (Ac-[Dopa]-Met-OMe)
Which is greater in half-life, the first item a or the second item b ? Give the chosen item's label as your response.
a
(a: 46.2 h, b: 26.9 h)
